Tested on: U2OS
ASSAY COMMENT: cell viability relative to DMSO; higher = less toxic
CONDITION LABEL: 72 h; 10 nM
Record form. Attribute: cell viability. Fill in for each entry.
Give bare numbers, in %.

- O=C(/C=C/c1c(C(=O)O)[nH]c2cc(Cl)cc(Cl)c12)Nc1ccccc1: 99.2
- CCC(=O)c1ccc(OCC(O)CN2CCN(c3ccccc3)CC2)cc1 (configuration not stated): 103
- N#CC(Cc1ccc(O)cc1)c1ccc(O)cc1 (configuration not stated): 99.4
- CC(C)C(N)C(=O)O (stereo in doubt): 92.7
- CNCc1ccc(-c2cc(-c3nc(-c4ccc(S(=O)(=O)C(C)C)cc4)cnc3N)on2)cc1: 104
- CC(=O)[C@H]1CC[C@H]2[C@@H]3CC[C@H]4C[C@](C)(O)CC[C@]4(C)[C@H]3CC[C@]12C: 99.4

Provide cell viability for all items below, preserving their order.
1. COc1ccc(-c2cc3c(C)nc(N)nc3n([C@H]3CC[C@H](OCCO)CC3)c2=O)cn1
2. Cc1cc(C)c2nc(-c3ccccn3)cc(C(=O)Nc3ccc(S(=O)(=O)Nc4onc(C)c4C)cc3)c2c1
3. O=C(O)CCC(=O)OC[C@@H](NC(=O)C(Cl)Cl)[C@H](O)c1ccc([N+](=O)[O-])cc1 [chloramphenicol-sodium-succinate]

Result block:
[95, 98.7, 96.9]
